Measured on: Musashi 2 (Msi2) (Homo sapiens, UniProt Q96DH6)
Sequence (Q96DH6 whole entry, species assumed): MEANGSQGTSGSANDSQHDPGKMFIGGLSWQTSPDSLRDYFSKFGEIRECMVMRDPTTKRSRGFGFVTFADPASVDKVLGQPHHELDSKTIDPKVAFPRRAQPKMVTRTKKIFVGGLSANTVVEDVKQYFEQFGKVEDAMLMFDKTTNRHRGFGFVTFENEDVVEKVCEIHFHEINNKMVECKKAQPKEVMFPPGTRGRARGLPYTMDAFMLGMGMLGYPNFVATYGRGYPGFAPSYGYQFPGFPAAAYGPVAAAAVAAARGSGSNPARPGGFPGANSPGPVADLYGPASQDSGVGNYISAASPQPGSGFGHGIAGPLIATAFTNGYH
Method description: Msi2 FP assay
Type: binding
Condition context: cell marked (RRM1), read-out: Msi2 (Ki) (RRM1)
Structures can show the parent of a compound that is named as a salt.
Output schema: class label derived from Ki. Mapping: class A: < 2 µM; class B: ≥ 2 µM and < 5 µM; class C: ≥ 5 µM

Answered cases to consult:
>>> print(df.to_string())
                                   molecule    label
0  CC(C)(C)c1ccc(C(=O)Nc2ccc3sc(C(=O)NO)cc3c2)cc1  class B
1  CC(C)(C)c1ccc(C(=O)Nc2ccc3sc(C(=O)O)cc3c2)cc1 [KH-43A]  class C
2  O=C(O)/C=C/c1cc2cc(NC(=O)c3ccc(C(F)(F)F)cc3)ccc2s1 [KH-32A]  class A
3  CN(C)c1ccc(C(=O)Nc2ccc3[nH]c(/C=C/C(=O)O)cc3c2)cc1 [KH-52A]  class C
4  CC(C)(C)c1ccc(C(=O)Nc2ccc3sc(/C=C/C(=O)NO)cc3c2)cc1  class A
5  CN(C)c1ccc(C(=O)Nc2ccc3sc(/C=C/C(=O)NO)cc3c2)cc1  class A
6  CN(C)c1ccc(C(=O)Nc2ccc3sc(C(=O)O)cc3c2)cc1 [KH-58A]  class C
7  O=C(O)/C=C/c1cc2cc(NC(=O)c3ccc(S(F)(F)(F)(F)F)cc3)ccc2s1 [KH-33A]  class A

Query block: Category of O=C(O)/C=C/c1cc2cc(NC(=O)c3ccccn3)ccc2s1 [KH-47A, hydrochloride] , please.
Result block: class C

Query block: Dear colleague, I would appreciate it if you could identify the bin for CC(C)(C)c1cccc(C(=O)Nc2ccc3sc(/C=C/C(=O)O)cc3c2)c1 [KH-31A] and reply at your convenience.
Result block: class A

Query block: Exercise: read the entry CC(C)(C)c1ccc(C(=O)Nc2ccc3[nH]c(/C=C/C(=O)NO)cc3c2)cc1 and state which class it falls under.
Result block: class B

* * *

Reported pKi by item:
Measured on: Musashi 2 (Msi2) (Homo sapiens)
Method description: Msi2 FP assay
Format: binding
Condition context: cell marked (RRM1), read-out: Msi2 (Ki) (RRM1)
Schema: pKi number; meaning minus log10 of the concentration expressed in molar units.

// below: answered compounds
>>> print(df.to_string())
                                   compound  measured_endpoint  reported_value
0  CC(C)(C)c1ccc(C(=O)Nc2ccc3[nH]c(C(=O)NO)cc3c2)cc1                pKi            5.50
1  CC(C)(C)c1ccc(C(=O)Nc2ccc3[nH]c(C(=O)O)cc3c2)cc1 [KH-39A]                pKi            4.66
2  CN(C)c1ccc(C(=O)Nc2ccc3[nH]c(C(=O)O)cc3c2)cc1 [KH-57A]                pKi            5.68
3  CC(C)(C)c1ccc(C(=O)Nc2ccc3[nH]c(/C=C/C(=O)O)cc3c2)cc1 [KH-48A]                pKi            5.32

Query block: For the compound CC(C)(C)c1cccc(C(=O)Nc2ccc3sc(/C=C/C(=O)NO)cc3c2)c1 , what pKi is on record?
Result block: 5.89

* * *

Test system: colon cancer cell line RKO
Method description: Cytotoxicity assay (WST-8), RKO
Assay type: cell-based
Condition context: 96 h incubation
Measured endpoint: IC50

>>> print(df.to_string())
                                   compound  measured_endpoint  reported_value
0  CC(C)(C)c1ccc(C(=O)Nc2ccc3sc(/C=C/C(=O)O)cc3c2)cc1 [KH-19A]               IC50         78.5 µM

Query block: Which measured IC50 value corresponds to CN(C)c1ccc(C(=O)Nc2ccc3sc(/C=C/C(=O)NO)cc3c2)cc1 ?
Result block: 5.74 µM

Query block: Fill blank: measured IC50 of the compound CN(C)c1ccc(C(=O)Nc2ccc3sc(/C=C/C(=O)O)cc3c2)cc1 [KH-36A] is ____.
Result block: 62.9 µM

Query block: Would you kindly share the measured IC50 for CC(C)(C)c1ccc(C(=O)Nc2ccc3sc(/C=C/C(=O)NO)cc3c2)cc1 ?
Result block: 4.48 µM

* * *

In this section, each of the compounds is paired with its reported Ki.
Protein target, amino acids: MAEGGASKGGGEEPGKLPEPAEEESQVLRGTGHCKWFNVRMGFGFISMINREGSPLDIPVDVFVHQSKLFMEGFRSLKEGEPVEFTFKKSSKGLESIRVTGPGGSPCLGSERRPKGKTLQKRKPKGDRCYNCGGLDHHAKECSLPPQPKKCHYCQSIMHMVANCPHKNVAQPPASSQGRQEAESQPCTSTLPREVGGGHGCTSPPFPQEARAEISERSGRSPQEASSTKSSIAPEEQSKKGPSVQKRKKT
Counter-ions that a name gives are not always drawn.

Query block: What measured Ki goes with CC(C)(C)c1ccc(C(=O)Nc2ccc3[nH]c(C(=O)NN)cc3c2)cc1 [KH-39E] ?
Result block: > 20 µM

Query block: Which Ki reading was recorded for the compound O=C(O)/C=C/c1cc2cc(NC(=O)C3CCCCC3)ccc2s1 [KH-46A] ?
Result block: > 20 µM

Query block: Which value of Ki has been reported for CC(C)c1ccc(C(=O)Nc2ccc3sc(CCC(=O)O)cc3c2)cc1 [KH-37A] in the records?
Result block: > 20 µM

Query block: Find the recorded Ki belonging to CN(C)c1ccc(C(=O)Nc2ccc3[nH]c(C(=O)O)cc3c2)cc1 [KH-57A] and report it.
Result block: > 20 µM

Query block: Form field: reported Ki of CC(C)(C)c1ccc(C(=O)Nc2ccc3sc(CCC(=O)NN)cc3c2)cc1 [KH-22E]
Result block: > 20 µM

Query block: For CC(C)(C)c1ccc(C(=O)Nc2ccc3[nH]c(C(=O)NO)cc3c2)cc1 , what is its reported Ki?
Result block: > 20 µM

Query block: Reported Ki for O=C(O)/C=C/c1cc2cc(NC(=O)c3ccc(C(F)(F)F)cc3)ccc2s1 [KH-32A] : what is it?
Result block: > 20 µM

Query block: Need Ki of CN(C)c1ccc(C(=O)Nc2ccc3sc(CCC(=O)O)cc3c2)cc1 [KH-38A] , thanks.
Result block: > 20 µM

Query block: Sample CC(C)(C)c1ccc(C(=O)Nc2ccc3sc(CCC(N)=O)cc3c2)cc1 [KH-22C] — what was its Ki?
Result block: > 20 µM

Query block: Which Ki value is on record for CC(C)(C)c1ccc(C(=O)Nc2ccc3sc(C(=O)O)cc3c2)cc1 [KH-43A] ?
Result block: > 20 µM

Query block: Which value of Ki has been reported for CC(C)(C)c1cccc(C(=O)Nc2ccc3sc(/C=C/C(=O)O)cc3c2)c1 [KH-31A] in the records?
Result block: > 20 µM

Query block: Value lookup for Ki; key = NNC(=O)CCc1cc2cc(NC(=O)c3ccc(C(F)(F)F)cc3)ccc2s1 [KH-29E]
Result block: > 20 µM

Query block: For O=C(Nc1ccc2[nH]c(C(=O)O)cc2c1)c1ccccn1 [KH-56A, hydrochloride] , what is its reported Ki?
Result block: > 20 µM

Query block: Consider the compound shown here: O=C(O)/C=C/c1cc2cc(NC(=O)c3ccc(F)cc3)ccc2s1 [KH-23A] What is its recorded Ki?
Result block: > 20 µM

Query block: Ki for CC(C)(C)c1ccc(C(=O)Nc2ccc3sc(/C=C/C(=O)NN)cc3c2)cc1 [KH-19E] ?
Result block: > 20 µM

Query block: GET /values?readout=Ki&item= CN(C)c1ccc(C(=O)Nc2ccc3[nH]c(/C=C/C(=O)O)cc3c2)cc1 [KH-52A]
Result block: > 20 µM

Query block: I'd like to know its Ki. The compound in question is CC(C)(C)c1ccc(C(=O)Nc2ccc3sc(/C=C/C(=O)O)cc3c2)cc1 [KH-19A]
Result block: > 20 µM

Query block: Could you share which Ki value was measured for CN(C)c1ccc(C(=O)Nc2ccc3sc(CCC(=O)NN)cc3c2)cc1 [KH-38E] ?
Result block: > 20 µM

Query block: Quick one: Ki of O=C(O)CCc1cc2cc(NC(=O)c3ccc(F)cc3)ccc2s1 [KH-28A] ?
Result block: > 20 µM

* * *

Measured on: RNA-binding protein Lin-28 homolog B (LIN28B) (Homo sapiens, UniProt Q6ZN17)
Sequence (Q6ZN17 1-250): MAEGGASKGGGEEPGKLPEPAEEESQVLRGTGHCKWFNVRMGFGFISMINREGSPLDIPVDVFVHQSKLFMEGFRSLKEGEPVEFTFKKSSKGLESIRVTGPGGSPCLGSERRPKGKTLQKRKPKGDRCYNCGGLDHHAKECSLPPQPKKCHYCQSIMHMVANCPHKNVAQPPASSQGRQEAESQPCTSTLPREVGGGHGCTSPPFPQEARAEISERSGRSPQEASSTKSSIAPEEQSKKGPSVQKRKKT
Method description: LIN28B FP assay
Below: a set of entries, each annotated with reported Ki.

                                   molecule  measured_endpoint  reported_value
0  CN(C)c1ccc(C(=O)Nc2ccc3[nH]c(/C=C/C(=O)NO)cc3c2)cc1                 Ki         > 20 µM

Read the next record carefully.
Query block: Can you look up the measured Ki of CC(C)(C)c1ccc(C(=O)Nc2ccc3[nH]c(C(=O)O)cc3c2)cc1 [KH-39A] for me?
Result block: > 20 µM
